Ref: patent US20230257376A1

Each entry below carries its reported IC50.
Target: ROCK2 kinase (Homo sapiens)
Sequence (O75116 whole entry): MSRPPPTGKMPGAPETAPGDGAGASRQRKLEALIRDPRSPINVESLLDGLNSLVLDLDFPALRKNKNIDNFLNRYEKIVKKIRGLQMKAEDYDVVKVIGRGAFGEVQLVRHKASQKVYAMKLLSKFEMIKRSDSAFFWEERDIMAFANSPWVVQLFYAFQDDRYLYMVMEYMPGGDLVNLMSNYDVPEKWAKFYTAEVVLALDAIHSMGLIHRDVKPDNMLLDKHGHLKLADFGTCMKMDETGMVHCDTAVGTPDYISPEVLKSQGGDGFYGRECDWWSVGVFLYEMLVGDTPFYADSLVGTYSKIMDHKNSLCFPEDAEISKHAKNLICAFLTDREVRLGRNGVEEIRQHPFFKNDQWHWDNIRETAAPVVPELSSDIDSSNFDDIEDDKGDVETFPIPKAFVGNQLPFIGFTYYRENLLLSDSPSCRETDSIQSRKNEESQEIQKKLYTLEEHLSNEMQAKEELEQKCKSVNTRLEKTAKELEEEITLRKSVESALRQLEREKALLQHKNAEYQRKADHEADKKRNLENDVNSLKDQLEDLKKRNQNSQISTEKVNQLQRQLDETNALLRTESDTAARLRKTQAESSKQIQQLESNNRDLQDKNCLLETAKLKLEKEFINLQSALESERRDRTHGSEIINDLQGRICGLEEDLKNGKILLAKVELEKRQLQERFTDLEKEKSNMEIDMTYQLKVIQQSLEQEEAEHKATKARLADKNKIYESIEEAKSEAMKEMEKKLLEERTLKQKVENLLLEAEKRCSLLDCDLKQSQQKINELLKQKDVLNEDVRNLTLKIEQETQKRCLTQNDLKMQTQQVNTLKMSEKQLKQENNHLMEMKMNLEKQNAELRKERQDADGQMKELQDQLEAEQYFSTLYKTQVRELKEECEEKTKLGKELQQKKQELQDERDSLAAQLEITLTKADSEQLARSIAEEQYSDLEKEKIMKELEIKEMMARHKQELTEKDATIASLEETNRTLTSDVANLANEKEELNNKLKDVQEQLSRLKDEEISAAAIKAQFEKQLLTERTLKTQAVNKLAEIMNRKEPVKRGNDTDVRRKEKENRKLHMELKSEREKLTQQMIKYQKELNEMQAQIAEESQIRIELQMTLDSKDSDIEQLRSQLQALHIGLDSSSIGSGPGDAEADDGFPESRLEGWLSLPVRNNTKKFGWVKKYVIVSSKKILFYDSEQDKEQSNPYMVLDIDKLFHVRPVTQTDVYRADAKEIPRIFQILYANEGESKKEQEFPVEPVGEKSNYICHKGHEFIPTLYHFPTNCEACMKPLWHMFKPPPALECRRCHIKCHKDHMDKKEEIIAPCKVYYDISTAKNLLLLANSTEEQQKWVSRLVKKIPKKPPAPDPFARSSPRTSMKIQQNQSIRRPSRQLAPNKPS

Known results for molecules:
Give recorded IC50 with ROCK2 kinase (Homo sapiens) for the following molecule: O=C(c1cn2c(n1)CN(c1nccc(Nc3ccc(-c4cn[nH]c4)cc3)n1)CC2)N1CC(F)(F)C1 [Compound L015] 0.05 to 0.5 µM

Give recorded IC50 with ROCK2 kinase (Homo sapiens) for the following molecule: Cn1c(C(=O)N2CC(F)(F)C2)cc2c1CN(c1nccc(Nc3ccc(-c4cn[nH]c4)cc3)n1)CC2 [Compound L005] ≤ 0.05 µM

Give recorded IC50 with ROCK2 kinase (Homo sapiens) for the following molecule: CC(C)NC(=O)c1cc2c(n1C)CN(c1nccc(Nc3ccc(-c4cn[nH]c4)cc3)n1)CC2 [Compound L009] 0.5 to 4.5 µM

We next turn to a different molecule, shown below.
Give recorded IC50 with ROCK2 kinase (Homo sapiens) for the following molecule: Cn1c(C(=O)NC2CCN(c3ccncc3Cl)CC2)cc2c1CN(c1nccc(Nc3ccc(-c4cn[nH]c4)cc3)n1)CC2 [Compound L021] 0.05 to 0.5 µM
